# Target Or System: TetR(BD') (UniProt P04483 1-187+P0ACT4:188-208, C68S;C88N;C121T;C144S;internal_change)
# Protocol: ITC; n=0.96 (TetR dimer per aptamer); ITC: 20 mM potassium phosphate pH 7.4, 50 mM NaCl, 25 C; EMSA: 50 mM Tris-HCl pH 8.0, 10 mM MgCl2, 25 mM NaCl, 25 ug/ml yeast tRNA, room temperature; SEC buffer not given (preparative complex: 20 mM Tris-HCl pH 8.0, 150 mM NaCl, 5 mM MgCl2)
# Run Conditions: protein: recombinant, chain copies: 2, label: 5'-32P in EMSA, none in ITC, crystal, hairpin, L-shaped, 43 nt, stems P1 and P2
Outcome Measure: pKd
Kindly note that pKd refers to -log10 of the concentration in mol/L and answer with the value alone.

Incoming: Need pKd, item GGCCGGAGAAUGUUAUGGCGCGAAAGCGCAGAGAAAACCGGUC (structured_RNA) [TetR-binding aptamer K1]
Outgoing: 8.25
